Tested on: S. aureus ATCC 13709
assay-summary: In vitro antibacterial susceptibility (MIC, broth microdilution)
Assay type: cell-based
measurement-context: CAMHB + 50% human serum
quantity: MIC against S. aureus ATCC 13709, CAMHB + 50% human serum (µg/mL)
Numeric only. Scale: µg/mL

I am curious: what MIC against S. aureus ATCC 13709, CAMHB + 50% human serum value has been reported for CC(C)CC(C(=O)NC1C(=O)NC(CC(N)=O)C(=O)NC2C(=O)NC3C(=O)NC(C(=O)NC(C(=O)O)c4cc(O)cc(O)c4-c4cc3ccc4O)C(OC3CC(C)(N)C(O)C(C)O3)c3ccc(c(Cl)c3)Oc3cc2cc(c3OC2OC(CO)C(O)C(O)C2OC2CC(C)(NCc3ccc(-c4ccc(Cl)cc4)cc3)C(O)C(C)O2)Oc2ccc(cc2Cl)C1O)N(C)C(=O)OCc1ccc(OP(=O)(O)O)cc1 (centres unmarked) [Compound 70] ?
32

Give the measured MIC against S. aureus ATCC 13709, CAMHB + 50% human serum of CC(C)CC(C(=O)NC1C(=O)NC(CC(N)=O)C(=O)NC2C(=O)NC3C(=O)NC(C(=O)NC(C(=O)O)c4cc(O)cc(O)c4-c4cc3ccc4O)C(OC3CC(C)(N)C(O)C(C)O3)c3ccc(c(Cl)c3)Oc3cc2cc(c3OC2OC(CO)C(O)C(O)C2OC2CC(C)(NCc3ccc(-c4ccc(Cl)cc4)cc3)C(O)C(C)O2)Oc2ccc(cc2Cl)C1O)N(C)C(=O)OCOC(=O)C(N)CCCCN (centres unmarked) [Compound 44] .
4
